Listed next: entries and their corresponding denaturant midpoint (higher = more stable).
B1: Ribonuclease, P00648 (parent)
chain: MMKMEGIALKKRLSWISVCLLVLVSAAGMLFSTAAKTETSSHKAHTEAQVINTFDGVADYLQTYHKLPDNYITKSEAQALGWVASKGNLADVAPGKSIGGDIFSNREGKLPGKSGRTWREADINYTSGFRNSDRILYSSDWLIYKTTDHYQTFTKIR

variants of: B1; details: Bacillus amyloliquefaciens; pH 6.3; 25 °C; Urea; Fluorescence; MES 1.00 M; NaCl 613 mM; reversible: yes; structure 1BNI; whole UniProt chain shown
TEST READOUT: denaturant midpoint (higher = more stable)

>>> df
   mutation_descriptor  result
0                 Y60F  4.38 M
1            Y60F Y64F  4.29 M
2                 Y64F  4.43 M
3            Y60A Y64A  2.43 M
4                 Y60A  2.86 M
